Assay: yeast display, Sf9 membrane polyspecificity reagent, FACS + sequencing; frameworks hold sequencing errors
Quantity kind: polyreactivity (PSR sort gate)

QVQLVESGGGLVQAGGSLRLSCAASGRIFLDYVMGWYRQAPGKEREVVAAISWSGDRTDYADSVKGRFTISLDNAKNTVYLQMNSLKPEDTAVYYCATTWYFAYSDDYKFDYWGQGTQVTVSS = low polyreactivity
QVHLVESGGGLVEAGGSLRLSCAASGRIFQGYAMGWYRQAPGKERELVAAITRSGGSTYYADSVKGRFTISRDNAKNTVYLQMNSLKPEDTAVYYCAASHYGLLEYWGQGTQVTVSS = low polyreactivity
QVQLVESGGGLVQAGGSLRLSCAASGSTFEYNAMGWYRQAPGKERELVASSTNYADSVKGRFTISRDNAKNTVYLQMNSLKPEDTAVYYCARVQGVNRNHDYWGQGTQVTVSS = low polyreactivity

###

Test: yeast display, Sf9 membrane polyspecificity reagent, FACS + sequencing; frameworks hold sequencing errors
Quantity kind: polyreactivity (PSR sort gate)

QVQLVESGGALVQAGGSLRLSCAASGRIFIVYAMGWSRQAPGKERDLVAAITSSGGGTYYADSVKGRFTISRDNAKNTVYLQMNSLKQEDSAVFYCATRYPYRPGYEYWGQGTQVTVSS = low polyreactivity
QVQLVESGGGLVQAGGSLRLSCAASGYTFVYNGMGWYRQAPGKERELVAAIRRRTGTTYYADSVKGRFTISRDNAKNTVYLQMNSLKPEDTAVYYCAATGFWGYDWGQGTQVTVSS = high polyreactivity
QVQHVESGGGLVQAGGSLRLSCAASGRTFQWYTLGWYRQAPGKERELVAAISWSGTSTYYADSVKGRFTISRDNEKNTVYLLMNSLKPEDTAVYYCAAKTYPSLFFHYGYWGQGTQVTVSS = low polyreactivity
QVQLVESGGGLVQAGGSLRLSCAASGIIFGSNTMGWYRQAPGKERELVAAITSSDGSTHYADSVKGRFTISRDNAKNTVYLQMKSLKPEDTAVYYCAARKVTYGHSYGYDYWGQGTQVTLSS = low polyreactivity
QDQLVESGGGLVQAGGSLRLSCAASGRIFDDTAMGWSRPAPGKERELVAAITGGGRTNYADSVKGRFTISRDNAKNTVYLQMNSLKPEDTAVYYCAAATYGWVIYIYDYWGQGTQVTVSS = low polyreactivity
QVQLVESGGGLVQAGGSLRLSCAASGIIFWLYTMGWYRQAPGKERELVAAITSGGSTYYADSVKGRFTISRDNAKNTVYIQMNSLKPEDTAVYYCAAVPRYRRGKYDYWGQGTQVTVSS = high polyreactivity
QVQLVESGGGLVQAGGRLRLSCADSGRTYGSNAMGWYRQAPGKERELVAAISGGDTTNYADSVKGRFTISRDNAKNTVYLQMNSLKPEDTAVYYCATDLRPAYDYWGEGTQVTVSS = low polyreactivity
QVQLVESGGGLVQAGGSLRLSCAASGSIFTHYAMGWYRQAPGKERELVAAITWSGGSTYYADSVKGRFTISRDNAKYTVYLQMNSLKPEDTAVYYCNVAWVGVSLVYGPFEYDYWGQGTQVTVSS = high polyreactivity
QVQLVESGGGLVQAGGSLRLSCAASGSIYWLYAMGWYRQAPGKERELVAAITWSGGRTYYADSVKGRFTISRDNAKYNVYLQMNSLKPEDTAVYYCARRQRPGYSNPARGGKYDYWGQGTQVTVSS = low polyreactivity
QVQLVESGGGLGQAGGSLRLSCAASGLTFLDYAMGWSRQAPGKERELVAAITSGGSTNYADSVKGRFTISRDKAKNTVYLQMNSLKPEDTAVYYFATDLEVSAYDYWGQGTQVTVSS = low polyreactivity
QVQLVESGGGLVQAGGSLRLSCAASGFIIVIYAMGWYIQAPGKERELVAAIRWRGGGTYYADSVKGRFTISRDNAKNTVYLQMNSLKPEDTAVYYCNADGWTYREEYWWRMDYWGLGTQVTVSS = low polyreactivity

###

Test: yeast display, Sf9 membrane polyspecificity reagent, FACS + sequencing; frameworks hold sequencing errors
Quantity kind: polyreactivity (PSR sort gate)

QVQLVESGGGLVQAGGSLRLSCAASGTFKWYAMGWYRQAPGKERELVAVISSSGGTTYYADSVKGRFTISRDTAKITVYLQMNSLKPEDTAFYYCNAAKLFRYDYWGQGTQVTVSS = high polyreactivity
QVQLVESGGGLVQAGGSLRLSCAATGRTFEGYAMGWYRQAPGKERELVAAISNSGGSTYYADSVKGRFTISRDNAKNTVYLQMNSLKPEDTAVYDCAALSRIRRYGYWGQGTQVNVSS = high polyreactivity
QVQLVESGGGLVQAGGSLRLSCAASGSTFANYAMGWYRQAPGKERELVAVISWGGGSTYYADSVKGRFTISRDNAKNTVYLQMNSLKPEDTAVYYCAAVYDEYQTTHEYDYWGQGTQVNVSS = low polyreactivity
QVQLVESGGGLVQAGGSLRLSCAASASNIIGYAMGWYRQAPGKERELVAAITSGSITNYADSVKGRFTISRDTAKNTVYLQMNSLKPEDTAVYYCNADVNFIDDDYWGQGTQVTVSS = low polyreactivity
QVQLVESGGGLVQAGGSLRISCAASGGIFNYYTMGWYRQAPGKERELVAAINSSGGNTHYADSVKGRFTISRDNAKNTVYLQMNSLKPEDTAVYYCNADARSVWFYRVDYWGQGTQVTVSS = low polyreactivity
QVQLVESGGGLVQAGGSLRLSCAASGRIFGYNAMGWSRQAPGKERELGAAISWSGGSTFYADSVKGRFTISRDNAKNTVYLQMNSLKPEDTAVYYCAADSQDGYYYWGQGTQVTVSS = low polyreactivity
QVQLVESGGGLVQAGGSLRLSCAASGLTFERYAMGWYRQAPGKERELVAAISIRGGSTYYADSVKGRFTISRDNAKNTVYLQMNSLKPEDTAVYYCNAESFSFYPSWHEYDYWGQGTQVTVSS = low polyreactivity
QVQLVESVGGLVQAGGSLRLSCAASGITFRRYAMGWYRQAPGKERELVATIRNSGGGTYYADSVKGRFTISRDNAKNTVYLQMNSLKPEDTAVYYCAAELYFTYYYWGQGTQVTVSS = high polyreactivity
QVQLVESGGGLVQAGGSLRLSCAASRFTFRRNAMGWYRQAPGKERELVAAITYNGGTTYYADSVKGRFTISRDNAKNTVYLQMNSLKPEDTAVYYCNAPYGRQGYDYWGQGTQVTVSS = low polyreactivity
HVQLVESGGGLVQAGGSLRLSCAASGSTFGRYVMGWHRQAPGKERELVAAISKNAGSTYYADSVKGRFTISRDNAKNTVYLKMASLKPEDTAVYYCAADWRTKGYDSLGQGTQVTVSS = high polyreactivity
QVQLVESGGVLFQAGGSLRLSCAASGRISYANAIGWYRQAPGKESEMVASITYSAGSTYADSVKGRFTISRDNAKNTVYLQMISLKPEDTAVYYCAKRPCQHYRSYLMDYWGQGTQVNVSS = low polyreactivity

###

Assay: yeast display, Sf9 membrane polyspecificity reagent, FACS + sequencing; frameworks hold sequencing errors
Quantity kind: polyreactivity (PSR sort gate)

QVQLVESGGGLVQAGGSLRLSCAASGSNFPYNAMGWYRQAPGKERELVAAITGRGGSTYYADSVKGRFTISRDNAKNTVYLHMNSLKPEDTAVYYCAAVTRNQGYYRYYYWGQGTQVTVSS = high polyreactivity
QVQLVESGGGLVQAGGSLRLSCAASGRIFYYYAMGWYRQAPGKERELLAAITRGGGTYYADSVKGRFTISRDNAKNTVYLQMNSLKPEDTAVYYCAKRGPPESHHPYRYRFDYWGKGTQVTVSS = low polyreactivity
QVQLVESGGGLVQAGGSLRLSCAASGFTFVNYAMGWYRQAPGKERELVAASSRSGGRTYYADSVKGRFTISRDNAKNTVYLQKNSLKPEDTAVYYCARLLLSPEYGYWGQGTQVTVSS = high polyreactivity
QVQLVESGGGLVQAGGSLRLSCAASGLIFTDYDMGWYRQAPGKERELVAAISTSGGSTYYADSVKGRFTISRDNAKNPVYLQMNSLKPAETAVYYCAAEYVYPYWNGFDYWGQGTQVTVSS = low polyreactivity
QVQLVESGGGLVQAGGSLRLSCAASGFTFPWYAMGWYRQAPGKERELVAAISIGTGRTYYADSVKGRFTISRDNAKNTVYLQMNSLKPEDTAVYYCAAEDQYYEDGYWGQGTQVTVSS = high polyreactivity
QVQLVESGGGLVQAGGSLRLSCAASGSIFSDYVMGWSRQAPGKERELVATISRGGGSTFYADSVKGRFTISRDTAKNTVYLQMNSLKPEDTAVYYCAAPPGPSGAKYDYWGQGTQVTVSS = low polyreactivity
QVPLVESGGGLVQAGGSLRLSCAASGFTFGWYAMGWYRQAPGKERELVAAISSNGGRTSYADSVKGRFTISRDNAKNTVYLQMNSLKPEDTAVYYCNADDRYIWTYWGWTIYDYWGQGTQVTVSS = high polyreactivity
QVQLVESGGGLVQAGGSLRLSCAASGRIFSWYTMGRYRQAPGKERELVADITYSGGSTYYADSVKGRFTISRDNAKNTVYLQMNSLKPEDTAVYYCNADPRWYHFEYGYWGQGTQVTVSS = high polyreactivity
QVQLVESGGGLVQAGGSLRLSCAASGRTSGYYAMGWYRQAPGKERELVAAISGGDSTNYADSVKGRFTFSRDNAKNTVYLQMNSLKPEDTAVYYCAKRTRVSWVPTFDYWGQGTQGTVSS = low polyreactivity
QVQLVESGGCLVQAGGSLRLSCAASGFTFTKYAMGWYRQAPGQERELVAAINRSGRTYYADSVKGRFTISRDNAKNTVYLQMNSLKPEDTAVYYCAADTRYQYSAYDYWGQGTQVTVSS = high polyreactivity
QVQLVESGGGLVQAGGSLRLTCAASGRIFIGYAMGWYRQAPGKERELVAAISRNGDNTYYADSVKGRFTISRDNAKNTVYLQMISLKPEDSAVYYCAAVAYPRQWKLSYEDGSWGYDYWGQGTQVTVSS = low polyreactivity

Cited source for all entries: the nanobody polyreactivity screen of Harvey et al. (2022)
